Consider the following compounds and their measured pIC50 readings.
# ASSAY_TARGET: PI 3-kinase delta (Homo sapiens, UniProt O00329)
# Sequence (O00329 whole entry): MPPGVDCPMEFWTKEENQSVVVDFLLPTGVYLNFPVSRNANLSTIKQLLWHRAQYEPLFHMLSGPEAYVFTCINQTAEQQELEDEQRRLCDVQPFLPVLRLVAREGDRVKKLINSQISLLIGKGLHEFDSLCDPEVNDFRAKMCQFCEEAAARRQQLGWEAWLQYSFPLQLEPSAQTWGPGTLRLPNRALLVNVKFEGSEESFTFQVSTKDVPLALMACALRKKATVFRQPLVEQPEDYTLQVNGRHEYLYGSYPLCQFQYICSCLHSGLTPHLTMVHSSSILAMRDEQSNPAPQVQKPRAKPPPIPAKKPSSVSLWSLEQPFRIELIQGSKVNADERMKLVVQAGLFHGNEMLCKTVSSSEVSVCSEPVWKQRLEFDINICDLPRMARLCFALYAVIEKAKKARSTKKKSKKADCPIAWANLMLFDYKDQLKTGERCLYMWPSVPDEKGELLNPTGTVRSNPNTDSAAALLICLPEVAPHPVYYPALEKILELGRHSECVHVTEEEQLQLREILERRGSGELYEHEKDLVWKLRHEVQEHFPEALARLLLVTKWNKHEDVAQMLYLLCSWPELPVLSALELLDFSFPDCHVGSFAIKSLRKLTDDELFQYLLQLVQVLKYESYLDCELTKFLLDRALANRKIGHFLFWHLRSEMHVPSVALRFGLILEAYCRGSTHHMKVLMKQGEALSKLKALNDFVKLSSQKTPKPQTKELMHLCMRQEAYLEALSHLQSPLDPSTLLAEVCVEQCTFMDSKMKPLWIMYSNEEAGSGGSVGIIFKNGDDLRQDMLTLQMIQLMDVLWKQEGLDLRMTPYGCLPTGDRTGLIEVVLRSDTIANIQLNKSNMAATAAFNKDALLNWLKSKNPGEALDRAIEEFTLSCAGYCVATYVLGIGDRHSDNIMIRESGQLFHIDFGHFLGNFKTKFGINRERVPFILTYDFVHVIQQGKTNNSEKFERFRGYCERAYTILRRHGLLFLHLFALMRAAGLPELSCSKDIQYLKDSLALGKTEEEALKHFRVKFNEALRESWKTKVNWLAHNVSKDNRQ
# Sequence (P27986 461-568 partner): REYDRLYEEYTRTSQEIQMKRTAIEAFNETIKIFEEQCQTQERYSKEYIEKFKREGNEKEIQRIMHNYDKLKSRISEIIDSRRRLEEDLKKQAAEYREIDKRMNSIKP
# METHOD_NOTES: TR-FRET Adapta assay, assay F
# EXPERIMENTAL_SETUP: read-out: Assay F PI3Kδ IC50
# pIC50: negative log10 of molar concentration; output just the value

Here are 3 compounds together with their reported answers.
COMPOUND	ASSAY_TARGET	pIC50
Cc1cn(-c2nc(-c3cc(S(=O)(=O)N[C@H]4CC[C@H](O)CC4)ccc3C)cnc2N)cn1 [Example 56]	PI 3-kinase delta (Homo sapiens, UniProt O00329)	7.10
CCn1ncc(-c2nc(-c3cc(S(=O)(=O)NCC(C)(C)O)ccc3C)cnc2N)n1 [Example 82]	PI 3-kinase delta (Homo sapiens, UniProt O00329)	6.27
Cc1cc(C)n(-c2nc(-c3cc(S(=O)(=O)NCC(C)(C)O)ccc3C)cnc2N)n1 [Example 48]	PI 3-kinase delta (Homo sapiens, UniProt O00329)	6.04

We now examine a further compound.
Record Cc1ccc(S(=O)(=O)NCC(C)(C)CO)cc1-c1cnc(N)c(-n2cncn2)n1 [Example 73] , field pIC50: 6.41

The measured values listed here are drawn from patent US10004732B2.
